System: γ-H2AX
measurementProtocol: Immunofluorescence DNA-damage response, NIH-3T3
Format: cell-based, mouse
recordedConditions: NIH-3T3, 24 h; 79a 0.111 µM, 92 0.038 µM, 97 0.042 µM; mitomycin C as validation
quantity: γ-H2AX upregulation (DNA-damage response)

C[C@@H]1O[C@@H](O[C@H]2CC[C@@]3(C)[C@H](CC[C@@H]4[C@@H]3CC[C@]3(C)[C@@H](C5=CC(=O)OC5)CC[C@]43O)C2)[C@H](O)[C@H](O)[C@H]1O [compound 97, digitoxigenin-L-α-rhamnoside] ... did not upregulate
C[C@@H]1O[C@H](O[C@H]2CC[C@]3(CO)[C@H]4CC[C@]5(C)[C@@H](C6=CC(=O)OC6)CC[C@]5(O)[C@@H]4CC[C@]3(O)C2)[C@H](O)[C@H](O)[C@H]1O [compound 92, strophanthidol-L-α-rhamnoside] ... did not upregulate
C[C@@H]1O[C@@H](O[C@H]2CC[C@@]3(CO)[C@H](CC[C@@H]4[C@@H]3CC[C@]3(C)[C@@H](C5=CC(=O)OC5)CC[C@]43O)C2)[C@H](O)[C@H](O)[C@H]1O [79a, cannogenol-L-α-rhamnoside] ... did not upregulate

Where do these numbers come from? They come from paper PMC6516474.
